The origin of these recorded values is the supplement of paper PMC10567573.

B1: TRIM39 (parent)
chain: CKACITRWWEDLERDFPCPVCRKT

- Variants of: B1
- EXPERIMENT_DESCRIPTION: protein stability index of a GFP-peptide fusion (GPS, HEK-293T) (PSI 1-6); higher = more stable;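 further: lentivirally expressed fusions sorted by FACS into six bins by GFP to DsRed ratio, PSI derived from sequencing read proportions per bin multiplied by bin number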
- PROTOCOL_CONDITIONS: c terminus: a fixed tail appended
Criterion: protein stability index meeting or surpassing 3. Met: fulfilled. Not met: not fulfilled.

Answered cases to consult:
{"columns": ["VARIANT_STRING", "ASSIGNED_CATEGORY"],
 "data": [
  ["K23R", "fulfilled"],
  ["A3F", "fulfilled"],
  ["E13A", "fulfilled"],
  ["P17W", "fulfilled"],
  ["E10F", "fulfilled"],
  ["C4A", "not fulfilled"]
]}

[Q] Assess whether reported protein stability index for C18Q sits at 3 or higher.
[A] not fulfilled
